Values from patent US12509459B2

- MEASURED_TARGET: NLRP3 (Homo sapiens, UniProt Q96P20)
- Sequence (Q96P20 whole entry): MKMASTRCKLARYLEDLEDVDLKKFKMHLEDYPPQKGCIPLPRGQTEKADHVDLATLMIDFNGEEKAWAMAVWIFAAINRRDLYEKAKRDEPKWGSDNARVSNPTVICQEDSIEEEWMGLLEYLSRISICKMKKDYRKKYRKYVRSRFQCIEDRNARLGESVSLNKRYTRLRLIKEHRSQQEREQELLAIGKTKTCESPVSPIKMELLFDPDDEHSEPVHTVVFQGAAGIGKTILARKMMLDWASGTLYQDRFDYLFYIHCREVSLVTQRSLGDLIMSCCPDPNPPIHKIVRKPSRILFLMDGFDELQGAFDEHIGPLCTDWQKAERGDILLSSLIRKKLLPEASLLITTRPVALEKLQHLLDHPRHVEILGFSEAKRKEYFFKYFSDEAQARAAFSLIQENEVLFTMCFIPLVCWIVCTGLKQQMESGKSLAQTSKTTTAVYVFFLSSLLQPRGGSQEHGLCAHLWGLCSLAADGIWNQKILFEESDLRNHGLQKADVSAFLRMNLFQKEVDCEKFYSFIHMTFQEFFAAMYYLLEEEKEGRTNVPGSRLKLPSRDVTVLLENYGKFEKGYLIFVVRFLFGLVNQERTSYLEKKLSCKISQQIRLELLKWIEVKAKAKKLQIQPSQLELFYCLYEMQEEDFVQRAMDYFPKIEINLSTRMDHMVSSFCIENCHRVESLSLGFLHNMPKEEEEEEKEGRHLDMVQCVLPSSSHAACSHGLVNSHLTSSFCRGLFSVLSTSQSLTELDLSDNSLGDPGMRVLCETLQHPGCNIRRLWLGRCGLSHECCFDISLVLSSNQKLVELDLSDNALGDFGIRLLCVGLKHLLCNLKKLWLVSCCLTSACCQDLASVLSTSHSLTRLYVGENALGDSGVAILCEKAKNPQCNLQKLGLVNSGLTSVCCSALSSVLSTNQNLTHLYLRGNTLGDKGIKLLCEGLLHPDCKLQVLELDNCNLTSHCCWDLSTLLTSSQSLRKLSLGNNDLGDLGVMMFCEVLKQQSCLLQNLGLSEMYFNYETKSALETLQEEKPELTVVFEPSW
- ASSAY_PROTOCOL: THP-1 cell-based NLRP3 activation assay
- REPORTED_CONDITIONS: PMA-differentiated THP-1 cells, LPS 100 ng/mL then 10 μM nigericin
pIC50: −log10 of the molar value.
Recorded pIC50 for the following compounds

{"CHEMICAL_SMILES": "CCOc1cc(C(=O)N(Cc2cccc3cn[nH]c23)[C@H]2C[C@@H](N)C2)ccc1-c1cccc(F)c1", "ENDPOINT_NAME": "pIC50", "REPORTED_RESULT": "> 7.00"}
{"CHEMICAL_SMILES": "CCOc1cc(C(=O)N(C)[C@H](c2cncc3cn[nH]c23)C2CN(C(C)C)C2)ccc1-c1cccc(F)c1", "ENDPOINT_NAME": "pIC50", "REPORTED_RESULT": "6.30 to 7.00"}
{"CHEMICAL_SMILES": "CCOc1cc(C(=O)N(C)[C@H](c2cncc3cn[nH]c23)C2CNC2)ccc1-c1ccccc1", "ENDPOINT_NAME": "pIC50", "REPORTED_RESULT": "> 7.00"}

Attention now turns to another entry.
Value of measured pIC50 for the entry "CCOc1cc(C(=O)N(C)[C@@H](CN2CCCC2)c2cncc3cn[nH]c23)ccc1-c1cccc(F)c1" : > 7.00

###

Recorded pIC50 for the following molecules
- MEASURED_TARGET: NLRP3 (Homo sapiens, UniProt Q96P20)
- ASSAY_PROTOCOL: THP-1 cell-based NLRP3 activation assay
- REPORTED_CONDITIONS: PMA-differentiated THP-1 cells, LPS 100 ng/mL then 10 μM nigericin
- Procedure: THP-1 cells are cultured in complete media (CM) until they reach logarithmic growth and achieve a viability >90%. CM is composed of RPMI-1640 (+Glutamax)/10% fetal bovine serum/55 μM β-mercaptoethanol/pen/strep. Cells are spun down and resuspended to 1,000,000 cells/mL in CM containing either 20 nM or 500 nM PMA. […] The media is again removed and replaced with Opti-Mem medium containing pre-determined dilutions of test compounds in replicate wells. […]
pIC50: −log10 of the molar value.

Value of measured pIC50 for the entry "CCOc1cc(C(=O)N(Cc2cncc3cn[nH]c23)[C@H]2C[C@@H](NC)C2)ccc1-c1cccc(C#N)c1" : > 7.00

Value of measured pIC50 for the entry "CCOc1cc(C(=O)N(C)[C@H](CCN2CC(F)(F)C2)c2cncc3cn[nH]c23)ccc1-c1cccc(F)c1" : > 7.00

Value of measured pIC50 for the entry "CN(C(=O)c1ccc(-c2cccc(Cl)c2)c(OC2CC2)c1)[C@H](CCN1CCC1)c1cncc2cn[nH]c12" : 4.82 to 6.00

Value of measured pIC50 for the entry "CCOc1cc(C(=O)N(C)[C@H](c2cncc3cn[nH]c23)C2CN(C(C)C)C2)ccc1-c1ccccc1" : 4.82 to 6.00

Value of measured pIC50 for the entry "CCOc1cc(C(=O)N(C)[C@H](c2cncc3cn[nH]c23)C2CN(C)C2)ccc1-c1cccc(Cl)c1" : > 7.00

###

- MEASURED_TARGET: NLRP3 (Homo sapiens, UniProt Q96P20)
- ASSAY_PROTOCOL: THP-1 cell-based NLRP3 activation assay
- Set-up: endogenous in cells; host or cells: THP-1 cells (PMA-differentiated, LPS-primed, nigericin-stimulated)
- REPORTED_CONDITIONS: PMA-differentiated THP-1 cells, LPS 100 ng/mL then 10 μM nigericin
ENDPOINT_NAME: IC50

Recorded results for 3 compounds are shown here.
{"COMPOUND": "CCOc1cc(C(=O)N(C)[C@@H](c2cncc3cn[nH]c23)C2CN(C(C)C)C2)ccc1-c1ccccc1 [Compound 179]", "REPORTED_RESULT": "< 100 nM"}
{"COMPOUND": "CCOc1cc(C(=O)N(C)[C@H](CCNC)c2cccc3cn[nH]c23)ccc1-c1cccc(Cl)c1 [Compound 233]", "REPORTED_RESULT": "< 100 nM"}
{"COMPOUND": "CCOc1cc(C(=O)N(CCO)Cc2cnc(N)c3cn[nH]c23)ccc1-c1cccc(C#N)c1 [Compound 043]", "REPORTED_RESULT": "100 to 500 nM"}

Entry CCOc1cc(C(=O)N(C)C(CCN(C)C)c2cccc3cn[nH]c23)ccc1-c1ccccc1 (stereo not shown) [Compound 135] under NLRP3 (Homo sapiens, UniProt Q96P20) had IC50 of < 100 nM

###

Recorded IC50 for the following compounds
- MEASURED_TARGET: NLRP3 (Homo sapiens, UniProt Q96P20)
- ASSAY_PROTOCOL: THP-1 cell-based NLRP3 activation assay
- REPORTED_CONDITIONS: PMA-differentiated THP-1 cells, LPS 100 ng/mL then 10 μM nigericin

{"COMPOUND": "CCOc1cc(C(=O)N(C)[C@@H](c2cncc3cn[nH]c23)C2CN(CC)C2)ccc1-c1ccccc1", "IC50": "< 100 nM"}

Entry "CCOc1cc(C(=O)N(C)[C@@H](CCO)c2cnc(C)c3cn[nH]c23)ccc1-c1ccccc1" under NLRP3 (Homo sapiens, UniProt Q96P20) had IC50 of > 15000 nM

Entry "CCNCC[C@H](c1cncc2cn[nH]c12)N(C)C(=O)c1ccc(-c2cccc(F)c2)c(OCC)c1" under NLRP3 (Homo sapiens, UniProt Q96P20) had IC50 of < 100 nM

Entry "CCOc1cc(C(=O)N(C)[C@H](CN(C)C)c2cncc3cn[nH]c23)ccc1-c1cccc(F)c1" under NLRP3 (Homo sapiens, UniProt Q96P20) had IC50 of < 100 nM

###

- MEASURED_TARGET: NLRP3 (Homo sapiens)
- ASSAY_PROTOCOL: THP-1 cell-based NLRP3 activation assay
- REPORTED_CONDITIONS: PMA-differentiated THP-1 cells, LPS 100 ng/mL then 10 μM nigericin
pIC50: −log10 of the molar value.
ENDPOINT_NAME: pIC50

Recorded results for 3 molecules are shown here.
{"CHEMICAL_SMILES": "CCOc1cc(C(=O)N(C)[C@@H](c2cncc3cn[nH]c23)[C@@H]2CCN(C)C2)ccc1-c1ccccc1", "MEASURED_TARGET": "NLRP3 (Homo sapiens)", "REPORTED_RESULT": "> 7.00"}
{"CHEMICAL_SMILES": "CCOc1cc(C(=O)N(Cc2cnc(C)c3cn[nH]c23)CC(C)(C)O)ccc1-c1cccc(F)c1", "MEASURED_TARGET": "NLRP3 (Homo sapiens)", "REPORTED_RESULT": "> 7.00"}
{"CHEMICAL_SMILES": "CCOc1cc(C(=O)N(C)[C@@H](CCO)c2cnc(C)c3cn[nH]c23)ccc1-c1cccc(C#N)c1", "MEASURED_TARGET": "NLRP3 (Homo sapiens)", "REPORTED_RESULT": "< 4.82"}

Attention now turns to another entry.
Value of measured pIC50 for the entry "CCOc1cc(C(=O)N(C)[C@@H](c2cncc3cn[nH]c23)C2CNC2)ccc1-c1cccc(C)c1" : > 7.00

###

- MEASURED_TARGET: UniProt Q96P20
- ASSAY_PROTOCOL: THP-1 cell-based NLRP3 activation assay
- Parameters: endogenous in cells; host or cells: THP-1 cells (PMA-differentiated, LPS-primed, nigericin-stimulated)
- REPORTED_CONDITIONS: PMA-differentiated THP-1 cells, LPS 100 ng/mL then 10 μM nigericin
pIC50: −log10 of the molar value.
Recorded pIC50 for the following compounds

{"CHEMICAL_SMILES": "CCOc1cc(C(=O)N(C)[C@H](CCN2C[C@@H](F)[C@@H](F)C2)c2cncc3cn[nH]c23)ccc1-c1cccc(F)c1", "REPORTED_RESULT": "> 7.00"}
{"CHEMICAL_SMILES": "CCOc1cc(C(=O)N(C)[C@H](CO)c2cncc3cn[nH]c23)ccc1-c1cc(F)cc(F)c1", "REPORTED_RESULT": "> 7.00"}
{"CHEMICAL_SMILES": "CCOc1cc(C(=O)N(Cc2cncc3cn[nH]c23)[C@H]2CC[C@@H]2N)ccc1-c1cccc(F)c1", "REPORTED_RESULT": "6.00 to 6.30"}

Value of measured pIC50 for the entry "CCOc1cc(C(=O)N(C)[C@H](CN(CC)CC)c2cccc3cn[nH]c23)ccc1-c1cccc(F)c1" : 4.82 to 6.00

Value of measured pIC50 for the entry "CCOc1cc(C(=O)N(C)[C@H](CCN)c2cncc3cn[nH]c23)ccc1-c1ccccc1" : > 7.00
